Provenance of the data: patent US20230233569A1

Target: KRAS G12D (Homo sapiens, UniProt P01116+P62937, G12D)
Sequence (P01116 1-169 isoform P01116-2 G12D limits assumed): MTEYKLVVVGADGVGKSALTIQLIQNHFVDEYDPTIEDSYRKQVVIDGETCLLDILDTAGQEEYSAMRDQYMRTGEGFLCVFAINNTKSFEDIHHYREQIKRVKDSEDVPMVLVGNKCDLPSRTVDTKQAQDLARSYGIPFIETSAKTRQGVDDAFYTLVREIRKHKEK
Sequence (P62937 whole entry): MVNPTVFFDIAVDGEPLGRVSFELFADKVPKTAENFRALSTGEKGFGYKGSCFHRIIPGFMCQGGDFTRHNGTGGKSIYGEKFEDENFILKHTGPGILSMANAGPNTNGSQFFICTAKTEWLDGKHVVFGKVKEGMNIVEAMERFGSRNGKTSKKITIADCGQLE
Assay: Disruption of BRAF RBD interaction with Ras (FRET / MOA assay, with Cyclophilin A)
Assay type: biochemical
Conditions: read-out: KRAS G12D FRET data, IC50
pIC50: −log10 of the molar value.
observable: pIC50

compound	observed.value
CC#C[S+]([O-])N1CC[C@H](C(=O)N(C)[C@H](C(=O)N[C@H]2Cc3cccc(c3)-c3ccc4c(c3)c(c(-c3cccnc3[C@H](C)OC)n4CC)CC(C)(C)COC(=O)[C@@H]3CCCN(N3)C2=O)C2CCCC2)C1 (stereo partly shown)	< 5.00
CCn1c(-c2cccnc2[C@H](C)OC)c2c3cc(ccc31)-c1csc(n1)C[C@H](NC(=O)[C@H](C(C)C)N(C)C(=O)N1CC3(CCCO3)C1)C(=O)N1CCC[C@H](N1)C(=O)OCC(C)(C)C2 (atropisomer, axis not shown)	5.00 to 6.00
C=CC(=O)N1CC[C@H](C(=O)N(C)[C@H](C(=O)N[C@H]2Cc3cc(O)cc(c3)-c3ccc4c(c3)c(c(C3=C(COC)COCC3)n4CC)CC(C)(C)COC(=O)[C@@H]3CCCN(N3)C2=O)C(C)C)C1	5.00 to 6.00
CCn1c(-c2cc(N3CCN(C)CC3)cnc2[C@H](C)OC)c2c3cc(ccc31)-c1csc(n1)C[C@H](NC(=O)[C@H](C1CCCC1)N(C)C(=O)N(C)C)C(=O)N1CCC[C@H](N1)C(=O)OCC(C)(C)C2 (atropisomer, axis not shown)	6.00 to 7.00
CCn1c(-c2cccnc2[C@H](C)OC)c2c3cc(ccc31)-c1cccc(c1)C[C@H](NC(=O)[C@H](C(C)C)N(C)C(=O)[C@H]1CCN(C(=O)C(C)(C)N(C)C)C1)C(=O)N1CCC[C@H](N1)C(=O)OCC(C)(C)C2	5.00 to 6.00
CCn1c(-c2cccnc2[C@H](C)OC)c2c3cc(ccc31)-c1csc(n1)C[C@H](NC(=O)[C@H](C(C)C)N(C)C(=O)N1CC3(C1)CS(=O)(=O)CCN3C)C(=O)N1CCC[C@H](N1)C(=O)OCC(C)(C)C2	< 5.00
C=CC(=O)N1CC[C@H](C(=O)N(C)[C@H](C(=O)N[C@H]2Cc3cc(O)cc(c3)-c3ccc4c(c3)c(c(-c3cccnc3N3CC(OC)C3)n4CC)CC(C)(C)COC(=O)[C@@H]3CCCN(N3)C2=O)C(C)C)C1	< 5.00
CCn1c(-c2cccnc2[C@H](C)OC)c2c3cc(ccc31)-c1cc(O)cc(c1)C[C@H](NC(=O)[C@H](C(C)C)N(C)C(=O)[C@H]1CCN(C(=O)[C@H]3CCCN3)C1)C(=O)N1CCC[C@H](N1)C(=O)OCC(C)(C)C2	7.00 to 8.00
CCn1c(-c2cccnc2[C@H](C)OC)c2c3cc(ccc31)-c1cc(O)cc(c1)C[C@H](NC(=O)[C@H](C(C)C)N(C)C(=O)C1CC13CC3)C(=O)N1CCC[C@H](N1)C(=O)OCC(C)(C)C2 (stereo partly shown)	6.00 to 7.00
CCn1c(-c2cc(N3CCN(C)CC3)cnc2[C@H](C)OC)c2c3cc(ccc31)-c1csc(n1)C[C@H](NC(=O)[C@H](C(C)C)N(C)C(=O)N1CC(N(C)C)C1)C(=O)N1CCC[C@H](N1)C(=O)OCC(C)(C)C2 (atropisomer, axis not shown)	6.00 to 7.00
C=CC(=O)N1CC[C@@]2(CCN2C(=O)N(C)[C@H](C(=O)N[C@H]2Cc3nc(cs3)-c3ccc4c(c3)c(c(-c3cccnc3[C@H](C)OC)n4CC)CC(C)(C)COC(=O)C3CCCN(N3)C2=O)N(C)C)C1 (single isomer, unassigned)	5.00 to 6.00
CCn1c(-c2cccnc2[C@H](C)OC)c2c3cc(ccc31)-c1csc(n1)C[C@H](NC(=O)[C@H](C(C)C)N(C)C(=O)N1CCO[C@@H](C)C1)C(=O)N1CCC[C@H](N1)C(=O)OCC(C)(C)C2 (atropisomer, axis not shown)	6.00 to 7.00
CCn1c(-c2cccnc2COC)c2c3cc(ccc31)-c1cc(O)cc(c1)C[C@H](NC(=O)[C@H](C(C)C)N(C)C(=O)[C@H]1CCNC1)C(=O)N1CCC[C@H](N1)C(=O)OCC(C)(C)C2	6.00 to 7.00
C=CC(=O)N1CCC2(C1)CN(C(=O)N(C)[C@H](C(=O)N[C@H]1Cc3nc(cs3)-c3ccc4c(c3)c(c(-c3cccnc3[C@H](C)OC)n4CC(F)(F)F)CC(C)(C)COC(=O)C3CCCN(N3)C1=O)C(C)C)C2 (stereo partly shown)	6.00 to 7.00
CCn1c(-c2cccnc2[C@H](C)OC)c2c3cc(ccc31)-c1cc(O)cc(c1)C[C@H](NC(=O)[C@H](C(C)C)N(C)C(=O)[C@H]1CCN[C@H]1C)C(=O)N1CCC[C@H](N1)C(=O)OCC(C)(C)C2	7.00 to 8.00
CCn1c(-c2cccnc2[C@H](C)OC)c2c3cc(ccc31)-c1cc(O)cc(c1)C[C@H](NC(=O)[C@H](C(C)C)N(C)C(=O)OC1CC1)C(=O)N1CCC[C@H](N1)C(=O)OCC(C)(C)C2	6.00 to 7.00

---

Biological target: KRAS G12V (Homo sapiens, UniProt P01116+P62937, G12V)
Sequence (P01116 1-169 isoform P01116-2 G12V limits assumed, one chain of several): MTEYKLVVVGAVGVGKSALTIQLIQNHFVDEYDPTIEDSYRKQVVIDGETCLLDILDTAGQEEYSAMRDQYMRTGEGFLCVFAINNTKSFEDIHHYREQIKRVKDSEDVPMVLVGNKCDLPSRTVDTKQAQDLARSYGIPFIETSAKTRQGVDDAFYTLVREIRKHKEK
Assay: Ras-Raf disruption / FRET / MOA assay (BRAF RBD)
Assay type: biochemical
Details: KRAS G12V FRET data IC50, Ras-Raf disruption, with Cyclophilin A
pIC50: −log10 of the molar value.
Measured pIC50 accompanies every entry in the list below.
observable: pIC50

compound	observed.value
CCn1c(-c2cccnc2[C@H](C)OC)c2c3cc(ccc31)-c1cc(O)cc(c1)C[C@H](NC(=O)[C@H](C(C)C)N(C)C(=O)CN(C)C(=O)[C@@H]1CN1CC(=O)N(C)C)C(=O)N1CCC[C@H](N1)C(=O)OCC(C)(C)C2 (some centres unmarked)	6.00 to 7.00
CCn1c(-c2cccnc2[C@H](C)OC)c2c3cc(ccc31)-c1cc(O)cc(c1)C[C@H](NC(=O)[C@H](C(C)C)N(C)C(=O)CN(C)C(=O)[C@H]1CN1CCCC#N)C(=O)N1CCC[C@H](N1)C(=O)OCC(C)(C)C2 (some centres unmarked)	7.00 to 8.00

---

Test system: NCI-H358 (K-Ras G12C)
Experiment: CellTiter-Glo cell viability assay, 5-day treatment
Assay type: cell-based
Settings: Homo sapiens, NCI-H358, 120 h, 5-day treatment; read-out: H358 Cell Viability assay data (K-Ras G12C, IC50)
pIC50: −log10 of the molar value.
Measured pIC50 accompanies every entry in the list below.

molecule	system.tested	pIC50
CCn1c(-c2cnccc2COC)c2c3cc(ccc31)-c1cc(O)cc(c1)C[C@H](NC(=O)[C@H](C(C)C)N(C)C(=O)[C@H]1CCNC1)C(=O)N1CCC[C@H](N1)C(=O)OCC(C)(C)C2	NCI-H358 (K-Ras G12C)	5.00 to 6.00
CCn1c(-c2cccnc2[C@H](C)OC)c2c3cc(ccc31)-c1csc(n1)C[C@H](NC(=O)[C@H](C(C)C)N(C)C(=O)N1CCN(C(=O)CN(C)C)CC1)C(=O)N1CCC[C@H](N1)C(=O)OCC(C)(C)C2 (atropisomer, axis not shown)	NCI-H358 (K-Ras G12C)	7.00 to 8.00
CCn1c(-c2cnccc2COC)c2c3cc(ccc31)-c1cc(O)cc(c1)C[C@H](NC(=O)[C@H](C(C)C)N(C)C(=O)CN1CCOCC1)C(=O)N1CCC[C@H](N1)C(=O)OCC(C)(C)C2	NCI-H358 (K-Ras G12C)	5.00 to 6.00
CCn1c(-c2cccnc2[C@H](C)OC)c2c3cc(ccc31)-c1csc(n1)C[C@H](NC(=O)[C@H](C(C)C)N(C)C(=O)N1CC(OC(F)F)C1)C(=O)N1CCC[C@H](N1)C(=O)OCC(C)(C)C2 (atropisomer, axis not shown)	NCI-H358 (K-Ras G12C)	> 8.00
CCn1c(-c2cc(N3CCN(C)CC3)cnc2[C@H](C)OC)c2c3cc(ccc31)-c1csc(n1)C[C@H](NC(=O)[C@H](C(C)C)N(C)C(=O)N1CCOCC1)C(=O)N1CCC[C@H](N1)C(=O)OCC(C)(C)C2 (atropisomer, axis not shown)	NCI-H358 (K-Ras G12C)	> 8.00
CCn1c(-c2cccnc2[C@H](C)OC)c2c3cc(ccc31)-c1cccc(c1)C[C@H](NC(=O)[C@H](C(C)C)N(C)C(=O)[C@H]1CCN(C(C)=O)C1)C(=O)N1CCC[C@H](N1)C(=O)OCC(C)(C)C2	NCI-H358 (K-Ras G12C)	5.00 to 6.00
CCn1c(-c2cccnc2[C@H](C)OC)c2c3cc(ccc31)-c1csc(n1)C[C@H](NC(=O)[C@H](C(C)C)N(C)C(=O)N1CC[C@@H](N(C)C)C1)C(=O)N1CCC[C@H](N1)C(=O)OCC(C)(C)C2 (atropisomer, axis not shown)	NCI-H358 (K-Ras G12C)	7.00 to 8.00
CCn1c(-c2cccnc2[C@H](C)OC)c2c3cc(ccc31)-c1csc(n1)C[C@H](NC(=O)[C@H](C(C)C)N1CCC3(CCN(C(=O)OC)C3)C1=O)C(=O)N1CCC[C@H](N1)C(=O)OCC(C)(C)C2 (some centres unmarked)	NCI-H358 (K-Ras G12C)	6.00 to 7.00
CCn1c(-c2cccnc2[C@H](C)OC)c2c3cc(ccc31)-c1csc(n1)C[C@H](NC(=O)[C@H](C(C)C)N(C)C(=O)NC)C(=O)N1CCC[C@H](N1)C(=O)OCC(C)(C)C2	NCI-H358 (K-Ras G12C)	6.00 to 7.00
CCn1c(-c2cccnc2[C@H](C)OC)c2c3cc(ccc31)-c1cc(O)cc(c1)C[C@H](NC(=O)[C@H](C(C)C)N(C)C(=O)[C@@H]1OC[C@@H]3CCC[C@@H]31)C(=O)N1CCC[C@H](N1)C(=O)OCC(C)(C)C2	NCI-H358 (K-Ras G12C)	6.00 to 7.00
CCn1c(-c2cccnc2[C@H](C)OC)c2c3cc(ccc31)-c1csc(n1)C[C@H](NC(=O)[C@H](C(C)C)N(C)C(=O)N1C[C@H](C)N(C)C[C@@H]1C)C(=O)N1CCC[C@H](N1)C(=O)OCC(C)(C)C2	NCI-H358 (K-Ras G12C)	6.00 to 7.00
CCn1c(-c2cccnc2[C@H](C)OC)c2c3cc(ccc31)-c1csc(n1)C[C@H](NC(=O)[C@H](C(C)C)N(C)C(=O)N1CC3(CC(N(C)CCOC)C3)C1)C(=O)N1CCC[C@H](N1)C(=O)OCC(C)(C)C2 (atropisomer, axis not shown)	NCI-H358 (K-Ras G12C)	7.00 to 8.00
CCn1c(-c2cccnc2[C@H](C)OC)c2c3cc(ccc31)-c1csc(n1)C[C@H](NC(=O)[C@H](C1CCCC1)N(C)C(C)=O)C(=O)N1CCC[C@H](N1)C(=O)OCC(C)(C)C2	NCI-H358 (K-Ras G12C)	7.00 to 8.00
CCn1c(-c2cccnc2[C@H](C)OC)c2c3cc(ccc31)-c1csc(n1)C[C@H](NC(=O)[C@H](C(C)C)N1CCN(C)C1=O)C(=O)N1CCC[C@H](N1)C(=O)OCC(C)(C)C2	NCI-H358 (K-Ras G12C)	7.00 to 8.00
CCn1c(-c2cccnc2[C@H](C)OC)c2c3cc(cnc31)-c1csc(n1)C[C@H](NC(=O)[C@H](C(C)C)N(C)C(=O)N1CC(OC)C1)C(=O)N1CCC[C@H](N1)C(=O)OCC(C)(C)C2	NCI-H358 (K-Ras G12C)	6.00 to 7.00
CCn1c(-c2cccnc2[C@H](C)OC)c2c3cc(ccc31)-c1csc(n1)C[C@H](NC(=O)[C@H](C(C)C)N(C)C(=O)N1C[C@@H]3CN(C)CC[C@@H]31)C(=O)N1CCC[C@H](N1)C(=O)OCC(C)(C)C2	NCI-H358 (K-Ras G12C)	7.00 to 8.00
CCn1c(-c2cccnc2[C@H](C)OC)c2c3cc(ccc31)-c1csc(n1)C[C@H](NC(=O)[C@H](C(C)C)N(C)C(=O)N1CCC3(CC1)CN(C)CCO3)C(=O)N1CCC[C@H](N1)C(=O)OCC(C)(C)C2	NCI-H358 (K-Ras G12C)	7.00 to 8.00
